- System: 648629-189-R-J1-PDC complex spheroids viability
- assayExplanation: Anticancer human tumor 648629-189-R-J1-PDC patient-derived bladder carcinoma cell line growth inhibition [CLK]; active = viability on the fitted dose curve at most 10% of control; inactive = the rest
- particulars: second compound 10 µM; first compound 3.16 µM
Choose the fitting class; nothing outside active, inactive is accepted.

{"compound": "COC1C=CCC(C)C(C)S(=O)(=O)NC(=O)c2ccc3c(c2)N(CC2CCC21)CC1(CCCc2cc(Cl)ccc21)CO3 (stereo not given) + CNC(=O)c1ccc(Nc2nc(OC3CCCC3)c3c(-c4ccc5nc(C)oc5c4)c[nH]c3n2)c(OC)c1", "category": "active"}
{"compound": "C=C(F)C(=O)N1CCN(c2nc(OCC3CCCN3C)nc3c2CCN(c2cccc4cccc(Cl)c24)C3)CC1CC#N (stereo not given) + CN1CCN(c2cc(C(=O)Nc3cc4cc(-c5cnn(C)c5)ccc4cn3)ccn2)CC1", "category": "active"}
{"compound": "Nc1ccn(C2OC(CO)C(O)C2(F)F)c(=O)n1 (stereo not given) + CNC(=O)c1ccc(Nc2nc(OC3CCCC3)c3c(-c4ccc5nc(C)oc5c4)c[nH]c3n2)c(OC)c1", "category": "active"}

Recorded test outcome, item O=c1[nH]cc(F)c(=O)[nH]1 + CN1CCN(c2cc(C(=O)Nc3cc4cc(-c5cnn(C)c5)ccc4cn3)ccn2)CC1
active

Field: outcome | Entry: CC(CO)NC(=O)c1cc(-c2ccc(Cl)cc2)nn(-c2cnn(C)c2)c1=O (stereo not given) + CNC(=O)c1ccc(Nc2nc(OC3CCCC3)c3c(-c4ccc5nc(C)oc5c4)c[nH]c3n2)c(OC)c1
inactive

---

- System: 648629-189-R-J1-PDC complex spheroids viability
- assayExplanation: Anticancer human tumor 648629-189-R-J1-PDC cell line growth inhibition [CLK];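 as to viability, T/C: drug exposure lasted seven days before viability readout; 100% = DMSO vehicle control wells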
- particulars: second compound 3.16 µM; first compound 0.1 µM; stronger effect = lower value
Consider the following compounds and their measured viability, T/C readings.

{"compound": "CCN1CCN(Cc2ccc(Nc3ncc(F)c(-c4cc(F)c5nc(C)n(C(C)C)c5c4)n3)nc2)CC1 + CN1CCN(c2cc(C(=O)Nc3cc4cc(-c5cnn(C)c5)ccc4cn3)ccn2)CC1", "result": "0.15%"}

Measured viability, T/C of COc1c(OCCCN2CCOCC2)ccc2c3n(c(=NC(=O)c4cnc(N)nc4)nc12)CCN3 + CN1CCN(c2cc(C(=O)Nc3cc4cc(-c5cnn(C)c5)ccc4cn3)ccn2)CC1 : 0.11%

The reported value for COC1C=CCC(C)C(C)S(=O)(=O)NC(=O)c2ccc3c(c2)N(CC2CCC21)CC1(CCCc2cc(Cl)ccc21)CO3 (stereo not drawn) + CN1CCN(c2cc(C(=O)Nc3cc4cc(-c5cnn(C)c5)ccc4cn3)ccn2)CC1 in terms of viability, T/C is 0.12%

---

- Test system: 648629-189-R-J1-PDC complex spheroids viability
- assayExplanation: Anticancer human tumor 648629-189-R-J1-PDC cell line growth inhibition [CLK];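 as to viability, T/C: drug exposure lasted seven days before viability readout; 100% = DMSO vehicle control wells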
- particulars: second compound 10 µM; first compound 3.16 µM; stronger effect = lower value
Threshold 20%. viability, T/C below it: rule met. viability, T/C at it or above: rule not met.

Consider the following illustrative entries.
{"molecule": "CC1COCCN1c1cc(C2(S(C)(=N)=O)CC2)nc(-c2ccnc3[nH]ccc23)n1 (stereo not given) + CNC(=O)c1ccc(Nc2nc(OC3CCCC3)c3c(-c4ccc5nc(C)oc5c4)c[nH]c3n2)c(OC)c1", "systemName": "648629-189-R-J1-PDC complex spheroids viability", "category": "rule not met"}
{"molecule": "CC(CO)NC(=O)c1cc(-c2ccc(Cl)cc2)nn(-c2cnn(C)c2)c1=O (stereo not given) + CN1CCN(c2cc(C(=O)Nc3cc4cc(-c5cnn(C)c5)ccc4cn3)ccn2)CC1", "systemName": "648629-189-R-J1-PDC complex spheroids viability", "category": "rule met"}
{"molecule": "CC1COCCN1c1cc(C2(S(C)(=N)=O)CC2)nc(-c2ccnc3[nH]ccc23)n1 (stereo not given) + CN1CCN(c2cc(C(=O)Nc3cc4cc(-c5cnn(C)c5)ccc4cn3)ccn2)CC1", "systemName": "648629-189-R-J1-PDC complex spheroids viability", "category": "rule met"}
{"molecule": "C#Cc1c(F)ccc2cc(O)cc(-c3ncc4c(N5CC6CCC(C5)N6)nc(OCC56CCCN5CC(F)C6)nc4c3F)c12 (stereo not given) + CNC(=O)c1ccc(Nc2nc(OC3CCCC3)c3c(-c4ccc5nc(C)oc5c4)c[nH]c3n2)c(OC)c1", "systemName": "648629-189-R-J1-PDC complex spheroids viability", "category": "rule not met"}

Does the reported viability, T/C of the following molecule sit strictly below 20%? CC(Nc1ccc2c(c1)OCCn1cc(N3C(=O)OCC3C(F)F)nc1-2)C(N)=O (stereo not given) + CNC(=O)c1ccc(Nc2nc(OC3CCCC3)c3c(-c4ccc5nc(C)oc5c4)c[nH]c3n2)c(OC)c1
rule not met

Consider COc1ccc([C@@H](O)c2cc(-c3ncnc4cc(N5CCOCC5)ccc34)c(F)cc2Cl)nn1 + CN1CCN(c2cc(C(=O)Nc3cc4cc(-c5cnn(C)c5)ccc4cn3)ccn2)CC1 . Does its viability, T/C lie strictly below 20%?
rule met

viability, T/C under 20%? Item: COC1C=CCC(C)C(C)S(=O)(=O)NC(=O)c2ccc3c(c2)N(CC2CCC21)CC1(CCCc2cc(Cl)ccc21)CO3 (stereo not given) + CN1CCN(c2cc(C(=O)Nc3cc4cc(-c5cnn(C)c5)ccc4cn3)ccn2)CC1
rule met

Find out if reported viability, T/C for C=CC(=O)N1CCN(c2nc(=O)n(-c3c(C)ccnc3C(C)C)c3nc(-c4c(O)cccc4F)c(F)cc23)C(C)C1 (stereo not given) + CNC(=O)c1ccc(Nc2nc(OC3CCCC3)c3c(-c4ccc5nc(C)oc5c4)c[nH]c3n2)c(OC)c1 is less than 20%
rule not met

Hello, I'm reviewing records and need to know if viability, T/C of CC1(C)CCC(CN2CCN(c3ccc(C(=O)NS(=O)(=O)c4ccc(NCC5CCOCC5)c([N+](=O)[O-])c4)c(Oc4cnc5[nH]ccc5c4)c3)CC2)=C(c2ccc(Cl)cc2)C1 + CNC(=O)c1ccc(Nc2nc(OC3CCCC3)c3c(-c4ccc5nc(C)oc5c4)c[nH]c3n2)c(OC)c1 is below 20%. Could you check?
rule not met

---

IC50: recorded values
- Tested on: 648629-189-R-J1-PDC complex spheroids viability
- assayExplanation: Anticancer human tumor 648629-189-R-J1-PDC cell line growth inhibition [CLK]
- particulars: curve of first compound; second compound 0.1 µM
Enter your answer as a number in µM; do not include the unit.

{"compound": "Nc1ccn(C2OC(CO)C(O)C2(F)F)c(=O)n1 (stereo not drawn) + CN1CCN(c2cc(C(=O)Nc3cc4cc(-c5cnn(C)c5)ccc4cn3)ccn2)CC1", "readoutType": "IC50", "unitLabel": "µM", "resultNumber": 0.0498}

Now look at this entry.
Response field IC50 (648629-189-R-J1-PDC complex spheroids viability) for item CC(Nc1ccc2c(c1)OCCn1cc(N3C(=O)OCC3C(F)F)nc1-2)C(N)=O (stereo not drawn) + CN1CCN(c2cc(C(=O)Nc3cc4cc(-c5cnn(C)c5)ccc4cn3)ccn2)CC1 : 8.74

---

Form field: viability, T/C (one value per entry).
- Test system: 648629-189-R-J1-PDC complex spheroids viability
- assayExplanation: Anticancer human tumor 648629-189-R-J1-PDC cell line growth inhibition [CLK];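 as to viability, T/C: drug exposure lasted seven days before viability readout; 100% = DMSO vehicle control wells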
- particulars: second compound 0.316 µM; first compound 0.0316 µM; stronger effect = lower value

# example entries with known answers
{"molecule": "CCN1CCN(Cc2ccc(Nc3ncc(F)c(-c4cc(F)c5nc(C)n(C(C)C)c5c4)n3)nc2)CC1 + CNC(=O)c1ccc(Nc2nc(OC3CCCC3)c3c(-c4ccc5nc(C)oc5c4)c[nH]c3n2)c(OC)c1", "readoutType": "viability, T/C", "result": "24.2%"}
{"molecule": "CC(CO)NC(=O)c1cc(-c2ccc(Cl)cc2)nn(-c2cnn(C)c2)c1=O (stereo not given) + CNC(=O)c1ccc(Nc2nc(OC3CCCC3)c3c(-c4ccc5nc(C)oc5c4)c[nH]c3n2)c(OC)c1", "readoutType": "viability, T/C", "result": "31.1%"}
{"molecule": "CC(Nc1ccc2c(c1)OCCn1cc(N3C(=O)OCC3C(F)F)nc1-2)C(N)=O (stereo not given) + CNC(=O)c1ccc(Nc2nc(OC3CCCC3)c3c(-c4ccc5nc(C)oc5c4)c[nH]c3n2)c(OC)c1", "readoutType": "viability, T/C", "result": "27.7%"}
{"molecule": "COc1ccc([C@@H](O)c2cc(-c3ncnc4cc(N5CCOCC5)ccc34)c(F)cc2Cl)nn1 + CN1CCN(c2cc(C(=O)Nc3cc4cc(-c5cnn(C)c5)ccc4cn3)ccn2)CC1", "readoutType": "viability, T/C", "result": "23%"}

Record summary for CC(=O)O[C@H]1C(=O)[C@@]2(C)[C@H]([C@H](OC(=O)c3ccccc3)[C@]3(O)C[C@H](OC(=O)[C@H](O)[C@@H](NC(=O)c4ccccc4)c4ccccc4)C(C)=C1C3(C)C)[C@]1(OC(C)=O)CO[C@@H]1C[C@@H]2O + CN1CCN(c2cc(C(=O)Nc3cc4cc(-c5cnn(C)c5)ccc4cn3)ccn2)CC1 : reported viability, T/C = 9.01%
